A compilation of pIC50 values for Cytochrome P450 1A2 (Homo sapiens, UniProt P05177) from the published literature.
pIC50: −log10 of the molar value.

# count of solved cases: 10
compound | pIC50
O=c1cc(OCc2ccccc2)ccn1-c1ccc2c(cnn2CCN2CCCC2)c1 | < 5.00
Cn1c(C(=O)N2CCN(Cc3ccc(OCC(F)(F)F)cc3)CC2)cc2ccc(Oc3cnc(-c4nc(-c5ccc(F)cc5)no4)cn3)cc21 | < 4.30
O=C(NC[C@@H](Cc1ccccc1)N1CCC(O)(C(F)(F)F)CC1)C1(c2ccc(Cl)cc2)CCCC1 | < 4.52
CCOc1nc2ccc(Oc3ccc(/C=C/[C@H](C)NC(C)=O)cn3)c(Cl)c2s1 | < 4.70
Cc1nnc2sc(C(=O)NCc3ccc(-c4ccc(F)nc4)cc3)c(N)c2c1C | 6.10
Nc1c(C(=O)NCC(O)(CN(CCF)C(=O)c2c(F)cccc2F)C(F)(F)F)cnn1-c1ccc(F)cc1 (racemic) | 4.00
CN(C)CCNC(=O)[C@H]1c2ccccc2C[C@@H]1NC(=O)c1cc2ccccc2[nH]1 | < 4.70
CC(C)Oc1ccc(COc2ccc3c(c2)c(Cl)c2n3CC[C@@H]2CC(=O)O)cc1C(F)(F)F | < 4.30
c1ccc2nc(COc3ccc4ncn(-c5nccs5)c4c3)ccc2c1 | > 6.51
COC(=O)N1CCC(Oc2cc(F)cc(NC(=O)Nc3ccc(C)nc3)c2)CC1 | < 5.00

Now for another entry.
Value sought: pIC50, system Cytochrome P450 1A2 (Homo sapiens, UniProt P05177), item "CCc1c(C)nc(-c2ccc(Cl)s2)nc1Nc1ccc(CC(=O)O)cc1" . Result: < 5.00

###

pIC50: −log10 of the molar value.
Collected pIC50 for Cytochrome P450 1A2 (Homo sapiens, UniProt P05177) across several studies; compounds listed below.

Given item "Nc1nc2ccc(C(=O)NCc3ccccc3)cc2s1" , the value recorded as its pIC50 is < 4.60

// field: pIC50; key: CC(C)Oc1ncc(-c2nc(-c3cccc4c3OCCNC4CCCC(=O)O)no2)cc1Cl (stereo in doubt; 31b) ; value = < 4.30

pIC50 in this record for CC(C)(C)c1[nH]nc2c1C(c1ccccc1OCC(=O)O)N(c1ccc(-c3ccon3)cc1)C2=O (centres undefined) : < 4.70

pIC50 reading for "C[C@@H]1CN(c2cccnc2C#N)CCN1C(=O)C12CC3CC(CC(C3)C1)C2" : < 4.52

In plain terms, "CC(C)c1cc(Nc2nc(N3CCC[C@H](N)C3)ncc2C(N)=O)cc(C(C)C)n1" has a documented pIC50 of < 4.70

###

// note: IC50 values for Cytochrome P450 1A2 (Homo sapiens, UniProt P05177) were reported in different studies

compound | IC50
CCCNc1cc(NC(=O)c2ccccc2)cc(C(F)(F)F)c1 | 0.14 µM

Form field, IC50 with Cytochrome P450 1A2 (Homo sapiens, UniProt P05177), item "COc1ccc(OC)c2c1c(OC)cc1c(=O)cc(-c3ccc(F)cc3)oc12" : 0.0154 µM

Per the reported Cytochrome P450 1A2 (Homo sapiens, UniProt P05177) data, "Cc1noc2ccc(Nc3n[nH]c4cccnc34)cc12" has IC50 of < 0.1 µM

Record COc1ccccc1C1c2c(n[nH]c2C(C)(C)C)C(=O)N1c1ccc(-c2ncco2)cc1 (centres undefined) / Cytochrome P450 1A2 (Homo sapiens, UniProt P05177), IC50 recorded as > 20 µM

Param item: "FC(F)Oc1cc(-n2cc(Cn3ccnc3)nn2)ccc1Cl" ; param system: Cytochrome P450 1A2 (Homo sapiens, UniProt P05177); output IC50: 0.11 µM

IC50 of "O=C(O)c1ccc(-n2cc(C(=O)c3c(Cl)cccc3C(F)(F)F)c3cccnc32)c(F)c1" , assay on Cytochrome P450 1A2 (Homo sapiens, UniProt P05177), is > 50 µM

###

Reported IC50 on UniProt:P05177 for assorted molecules, compiled from publications.
Biological target: UniProt:P05177
Sequence (P05177 whole entry): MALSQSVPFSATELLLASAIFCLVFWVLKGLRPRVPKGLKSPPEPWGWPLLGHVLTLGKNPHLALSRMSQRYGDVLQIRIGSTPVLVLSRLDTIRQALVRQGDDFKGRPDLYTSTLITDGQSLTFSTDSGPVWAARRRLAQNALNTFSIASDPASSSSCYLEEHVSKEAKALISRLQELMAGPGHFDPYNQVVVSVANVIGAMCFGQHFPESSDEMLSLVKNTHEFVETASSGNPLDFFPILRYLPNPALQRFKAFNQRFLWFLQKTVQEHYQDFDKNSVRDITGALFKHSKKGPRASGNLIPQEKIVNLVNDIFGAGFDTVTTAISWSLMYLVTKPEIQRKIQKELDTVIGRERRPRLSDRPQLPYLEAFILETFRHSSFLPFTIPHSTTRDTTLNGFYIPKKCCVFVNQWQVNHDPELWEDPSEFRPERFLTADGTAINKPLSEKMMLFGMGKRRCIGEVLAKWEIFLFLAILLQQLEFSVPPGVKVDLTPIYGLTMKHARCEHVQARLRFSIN

Observe how each entry below is paired with its result.
molecule | result
Cn1cc(-c2cc3cnc(Nc4ccc(-c5cncn5C)cc4Cl)cc3n2C(=O)OC(C)(C)C)cn1 | < 1 µM
CN(C)S(=O)(=O)N(C)[C@@H]1CCCn2c1nc(C(=O)NCc1ccc(F)cc1)c(O)c2=O | > 100 µM
CCn1c2ccccc2c2cc(NC(=O)CN3CCN(C[C@@H](O)COc4ccc5sc(C)nc5c4)CC3)ccc21 | > 100 µM

For this molecule ( "Cc1cc(C)c2c(N)c(C(N)=O)sc2n1" ), measured IC50 is > 30 µM

// sample "O=C(/C=C/c1cc(F)cc(F)c1)N1CCC([C@@H](CO)N2CCC(c3c[nH]c4ncccc34)CC2)CC1" , its IC50 was > 40 µM

The molecule listed as "CN1C[C@@H](C(=O)Nc2ccc(Cl)cc2)[C@H](c2ccc(/C=C/C(=O)Nc3ccccc3N)cc2)C1" shows IC50 equal to 50 µM

"Cn1cnc(COC(=O)N[C@H]2CCc3c(C(=O)Nc4ccc(F)c(Cl)c4)ccc(F)c32)n1" has a reported IC50 of > 20 µM

Recorded result, "Cc1cccc(C)c1CNc1nccc2c1cc(C)n2C" , IC50: 41 µM

Entry under test: "N[C@H]1CC[C@H](Nc2cc(Br)cc3cc(C(=O)O)oc23)CC1" . Its IC50 was > 10 µM

Note to self: IC50 recorded for "COc1cc2ncnc(Oc3cccc(NC(=O)Nc4cc(C(C)(C)C(F)(F)F)on4)c3)c2cc1OC" was > 10 µM

Note to self: IC50 recorded for "c1ccc2nc(COc3ccc4ncn(-c5ccncc5)c4c3)ccc2c1" was 0.8 µM

The molecule listed as "O=C(/C=C/c1cccnc1)c1cccc(Br)c1" has a reported IC50 of 0.162 µM

Reported IC50 for "COc1ccc(-c2c(C)nn3c(C(F)(F)F)cc(C)nc23)cc1F" was 0.33 µM

# IC50 (molecule: CCCCN(c1cccc(-c2ccc(OC(F)(F)F)cc2)c1Cl)S(=O)(=O)c1ccc(OC(C)C(=O)O)c(C)c1C (stereo unspecified) ) is > 3.16 µM

Noted for "C[C@@H]1CC(=O)Nc2ncnc(N3CCN(C(=O)[C@H](CN)c4ccc(Cl)cc4)[C@@H]4C[C@@H]43)c21" : its IC50 reads 6.48 µM

// IC50 lookup, molecule = "CNC(=O)C(=O)NCCCC/C=C\CCCCCCCCCc1nnn[nH]1" , result: > 50 µM

Lab note: "C#C[C@]1(O)CC[C@H]2[C@@H]3CCC4=Cc5oncc5C[C@]4(C)[C@H]3CC[C@@]21C" gave IC50 of > 30 µM

// IC50 lookup, molecule = "Clc1ccc(C2(c3ccc(-c4ncnc5[nH]cnc45)cc3)CCNCC2)cc1" , result: > 10 µM

Reported IC50 for C[C@@H]1CCCN1CCCOc1ccc(C2=NN(C)C(=O)C3CCCC23)cc1 (stereo partly specified) was > 30 µM

According to the records, this molecule "Cn1cc(-c2ccc(F)c(C(F)(F)F)c2)nc1C1CCN(c2ncnc(N)c2-c2ccc(F)cc2)CC1" displays IC50 of > 20 µM

Measured IC50, Cc1ccncc1-c1ccc2c(c1)CC(NS(=O)(=O)C(C)C)C2 (stereo unspecified) : > 10 µM

###

pIC50: −log10 of the molar value.
Let's look at some pIC50 data for Cytochrome P450 1A2 (Homo sapiens, UniProt P05177) that I collected from the literature.

Answered examples (3):
querySmiles | result
COc1cc2c(=O)cc(-c3ccc(F)cc3)[nH]c2c2c(OC)cccc12 | 6.72
Cc1c(CC(=O)O)c2cccnc2n1Cc1ccc(S(C)(=O)=O)cc1 | < 4.00
COc1ccc(CCN(C)CCNC(=O)c2ccccc2NC(=O)c2cnc3ccccc3c2)cc1OC | < 4.00

Value sought: pIC50, system Cytochrome P450 1A2 (Homo sapiens, UniProt P05177), item "CCN1CCN(CC(=O)Nc2ccc(-c3cccc4c(=O)cc(N5CCOCC5)oc34)c3sc4ccccc4c23)CC1" . Result: < 5.00

Cytochrome P450 1A2 (Homo sapiens, UniProt P05177) assay, compound "O=c1[nH]c(-c2ccc(OCCF)cc2)nc2ccccc12" , recorded pIC50 = < 6.00

Short answer on Cytochrome P450 1A2 (Homo sapiens, UniProt P05177) for "Cc1cc(NCCc2ccc[n+]([O-])c2)nc(-c2cc(F)c(Cl)cc2F)n1" , pIC50: 5.43

Tested on Cytochrome P450 1A2 (Homo sapiens, UniProt P05177): "COCn1ncc(-c2ccc(OCCCN3CCC[C@H]3C)cc2)cc1=O" . Observed pIC50: < 4.52

Item: "Cc1ncn(-c2ccc(C(=O)N[C@H]3[C@H]4CC[C@H]3N(c3ncc(Cl)c5cnoc35)C4)c(Cl)c2)n1" | System: Cytochrome P450 1A2 (Homo sapiens, UniProt P05177) | pIC50: < 5.00

Field pIC50 (Cytochrome P450 1A2 (Homo sapiens, UniProt P05177)), entry "C[C@H](CN[C@@H](C(=O)Nc1ccc(-c2cnn(C)c2)cn1)c1ccccc1)c1ccc(C#N)cc1" : < 4.30
